Listed here: items and their measured z-score.
# assayed_target: NADPH oxidase 5 (Homo sapiens) (UniProt Q96PH1)
# Sequence (Q96PH1 whole entry, looked up): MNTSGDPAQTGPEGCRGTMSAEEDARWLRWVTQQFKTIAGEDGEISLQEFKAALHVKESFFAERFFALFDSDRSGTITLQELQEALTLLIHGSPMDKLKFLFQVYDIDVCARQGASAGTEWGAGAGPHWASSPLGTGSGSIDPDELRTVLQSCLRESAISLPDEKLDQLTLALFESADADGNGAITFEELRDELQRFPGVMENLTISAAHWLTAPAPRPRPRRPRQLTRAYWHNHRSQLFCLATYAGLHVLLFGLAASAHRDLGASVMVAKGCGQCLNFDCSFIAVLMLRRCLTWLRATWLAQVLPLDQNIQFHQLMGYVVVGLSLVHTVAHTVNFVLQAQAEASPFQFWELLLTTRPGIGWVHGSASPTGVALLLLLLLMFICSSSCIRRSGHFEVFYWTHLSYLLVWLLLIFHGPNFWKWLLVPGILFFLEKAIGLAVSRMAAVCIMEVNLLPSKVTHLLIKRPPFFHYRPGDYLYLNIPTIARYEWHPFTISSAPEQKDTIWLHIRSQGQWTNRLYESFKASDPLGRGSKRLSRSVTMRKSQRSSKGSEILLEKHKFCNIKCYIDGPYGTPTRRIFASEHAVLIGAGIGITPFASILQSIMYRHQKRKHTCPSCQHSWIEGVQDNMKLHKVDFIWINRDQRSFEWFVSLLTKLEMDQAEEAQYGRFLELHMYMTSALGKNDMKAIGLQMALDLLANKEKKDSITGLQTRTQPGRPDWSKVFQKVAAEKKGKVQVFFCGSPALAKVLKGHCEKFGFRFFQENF
# experiment_notes: NOX5-dependent H2O2 signal modulators, primary screen, NOX inhibitor project, cell-based, HEK293-NOX5, Amplex Red fluorescence (AID 1161)
# stated_conditions: HEK293-NOX5, ionomycin, 45 min, higher = more signal

compound	z-score
COC(=O)[C@@]1(Cc2ccc(OC)cc2)[C@H]2c3cc(C(=O)N4CCCC4)n(Cc4ccc(OC)c(OC)c4)c3C[C@H]2CN1C(=O)c1ccccc1	-3.23
CCN(CC)c1ccc(N2CC=CC34O[C@@H]5/C=C\CCCOC(=O)C5[C@H]3C(=O)N(CCO)[C@@H]4C2=O)cc1 (some centres not stated)	0.733
O=C1C2C=CC(C(O)C(c3ccccc3)c3ccccc3)N(n3cnnc3)C2C(=O)N1Cc1ccccc1 (configuration not stated)	-0.766
O=C1c2ccccc2[C@@]2(Cc3ccccc3N(CC(F)(F)F)C2=O)[C@H](c2ccc(CO)cc2)N1Cc1ccccc1Cl	-0.826
C[N+](C)(C)CCCC[C@@H]1NC(=O)[C@@H]2C[C@H](C(=O)NCCCCCN)[C@H](c3cccc(OCCO)c3)N2C1=O	1.54
C=CCOC(=O)[C@H]1[C@@H]2C(=O)O[C@@H](c3ccccc3)[C@@H](c3ccccc3)N2[C@@H](c2ccc(OCCOC(=O)[C@H]3C[C@H]4C(=O)N5CCC[C@H]5C(=O)N4[C@H]3c3ccc(O)cc3)cc2)[C@]12C(=O)Nc1ccc(I)cc12	-0.351
CC(C)(C)OC(=O)CC[C@]1(C(=O)NCC(O)CO)COC(c2ccc(OCCCO)cc2)=N1 (some centres not stated)	-0.519

* * *

# experiment_notes: E. coli acrAB mutant growth effects, primary screen, E. coli filamentation inducers, strain DRC39, OD650, 24 h (AID 1178);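 note: growth measured as culture turbidity by optical density at 650 nm; test concentration not given here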
# stated_conditions: higher = more signal, called active from +8 up or from −8 down
Calls of active or inactive are those of the source.

compound	z-score
COC(=O)[C@@]1(Cc2ccc(OC)cc2)[C@H]2c3cc(C(=O)N(C)C)n(Cc4cccc5ccccc45)c3C[C@H]2CN1C(=O)c1ccccc1	-0.353 (inactive)
COc1ccc([C@H]2C[C@H]3C(Br)=C[C@@H]2C(=O)[C@]32CO2)cc1	1.75 (inactive)
Cc1ccc(C(C)CC(O)C2C=CC3C(=O)N(c4ccccc4)C(=O)C3N2Nc2ccc([N+](=O)[O-])cc2)o1 (centres undefined)	-0.975 (inactive)
O=C1O[C@H](c2ccccc2)[C@H](c2ccccc2)N2[C@H]1[C@@H](C(=O)N1CCN(c3ncccn3)CC1)[C@]1(C(=O)Nc3ccc(C#CC4=CCCCC4)cc31)[C@H]2c1ccc(O)cc1	0.105 (inactive)

* * *

# experiment_notes: yeast growth modulation, basal conditions, primary screen, YJM789 clinical isolate, OD600, 24 h (AID 1089);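 note: growth of clinical yeast isolate S. cerevisiae YJM 789 seeded 1000 cells per well; test concentration not given here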
# stated_conditions: S. cerevisiae YJM789 growth, higher = more signal, called active from +8 up or from −8 down
Listed here: items and their measured z-score.
quantity_name: z-score

compound	meas_value
CCOC(=O)C[C@H]1[C@H](OC(=O)Cc2ccc3c(c2)OCO3)[C@@H](NC(=O)c2ccc(-c3ccccc3)cc2)c2cc(OCCCO)ccc2N1C(=O)Cc1ccc(OC)cc1	-1.32
CC(C)C[C@@H]1NC(=O)[C@@H]2C[C@H](C(=O)NCCCCCN)[C@H](c3cccc(OCCO)c3)N2C1=O	-4.39
COC(=O)[C@@]1(Cc2ccc(OC)cc2)[C@H]2c3cc(C(=O)N4CCCC4)n(Cc4ccccc4)c3C[C@H]2CN1C(=O)c1ccccc1	-0.183
COc1ccc(C(O)C2C=CC3C(=O)N(c4ccccc4)C(=O)C3N2Nc2ccccc2F)cc1OCc1ccccc1 (stereo unspecified)	-0.306
C=CCOC(=O)[C@H]1[C@@H]2C(=O)O[C@@H](c3ccccc3)[C@@H](c3ccccc3)N2[C@@H](c2ccc(OCCOC(=O)[C@@H]3C[C@@H]4C(=O)N5CCC[C@H]5C(=O)N4[C@@H]3c3cccc(OCCO)c3)cc2)[C@]12C(=O)Nc1ccccc12	1.06
COc1cc2c(cc1OC)CN(C(=O)[C@H]1[C@@H]3C(=O)O[C@@H](c4ccccc4)[C@@H](c4ccccc4)N3[C@@H](c3ccc(O)cc3)[C@]13C(=O)Nc1ccc(C#CCNC(N)=O)cc13)CC2	0.485
